# target: N-acylneuraminate-9-phosphatase (Homo sapiens, UniProt Q8TBE9)
# Sequence (Q8TBE9 whole entry): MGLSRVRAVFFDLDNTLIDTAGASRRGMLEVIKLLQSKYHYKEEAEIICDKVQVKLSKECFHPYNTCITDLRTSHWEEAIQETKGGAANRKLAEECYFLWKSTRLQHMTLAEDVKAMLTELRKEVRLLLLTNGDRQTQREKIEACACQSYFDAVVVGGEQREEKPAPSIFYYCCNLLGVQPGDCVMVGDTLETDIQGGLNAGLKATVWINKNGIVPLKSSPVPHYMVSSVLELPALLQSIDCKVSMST
# assayRemarks: Inhibition of recombinant HDHD4 (unknown origin) using Neu5Ac-9-P as substrate assessed as release of phosphate after 30 mins by maiachite green assay
IC50: recorded values
attributeMeasured: IC50 (µM)

smilesEntry: COC(=O)[C@]1(OC)C[C@H](O)[C@@H](NC(C)=O)[C@H]([C@H](O)[C@H](O)CCP(=O)(O)O)O1
inequalitySymbol: =
observed: 93.7
--
smilesEntry: CO[C@@]1(C(=O)O)C[C@H](O)[C@@H](NC(C)=O)[C@H]([C@H](O)[C@H](O)CCP(=O)(O)O)O1
inequalitySymbol: =
observed: 49.8
--
smilesEntry: CC(=O)N[C@H]1[C@H]([C@H](O)[C@H](O)CCC(=O)O)O[C@](O)(C(=O)O)C[C@@H]1O
inequalitySymbol: >
observed: 100
